Recorded measurements of NanoBRET Fold Response, one per entry
# Target Of Assay: DRD4 (Homo sapiens)
# Construct: purchased Promega (in-house HiBiT-GPCR construct library, NanoBRET)
# Sequence (P21917 whole entry): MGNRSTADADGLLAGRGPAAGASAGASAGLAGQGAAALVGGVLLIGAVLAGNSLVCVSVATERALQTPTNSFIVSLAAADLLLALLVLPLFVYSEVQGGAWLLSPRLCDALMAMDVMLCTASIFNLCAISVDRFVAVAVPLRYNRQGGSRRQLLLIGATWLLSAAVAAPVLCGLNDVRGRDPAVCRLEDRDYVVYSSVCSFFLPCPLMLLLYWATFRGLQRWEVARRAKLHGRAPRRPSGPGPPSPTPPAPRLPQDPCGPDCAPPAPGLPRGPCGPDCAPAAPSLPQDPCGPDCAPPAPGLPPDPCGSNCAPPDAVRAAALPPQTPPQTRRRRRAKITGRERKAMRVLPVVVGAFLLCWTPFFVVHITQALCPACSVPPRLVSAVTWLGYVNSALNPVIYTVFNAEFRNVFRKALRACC
# Method: NanoBRET screen HiBiT-DRD4 in HEK293
# Format: binding
# Cond: DRD4; tracer 1μM
Number, no unit, nothing else.

{"columns": ["Compound", "NanoBRET Fold Response"],
 "data": [
  ["O=C(CCc1ccc2n1[B-](F)(F)[N+]1=C(c3ccc[nH]3)C=CC1=C2)NCc1ccc(C(=O)NCCOCCC(=O)N[C@@H]2CC[C@@]3(O)[C@H]4Cc5ccc(O)c6c5[C@@]3(CCN4CC3CC3)[C@H]2O6)cc1 [Naltrexone-3-NB590]", 1.11]
]}

// recorded NanoBRET Fold Response for CC(C)N(CC[C@H](c1ccccc1)c1cc(CCNC(=O)c2ccc(CNC(=O)CCc3ccc4n3[B-](F)(F)[N+]3=C(c5ccc[nH]5)C=CC3=C4)cc2)ccc1O)C(C)C : 1.09

Note to self: NanoBRET Fold Response recorded for O=C(CCc1ccc2n1[B-](F)(F)[N+]1=C(c3ccc[nH]3)C=CC1=C2)NCCOCCOCCNC(=O)OCCOCCN1CCN(C2=Nc3ccccc3Sc3ccccc32)CC1 was 1.49

The value of NanoBRET Fold Response measured for the compound CCCn1c(=O)c2[nH]c(-c3ccc(OCC(=O)NCCNC(=O)CCOCCNC(=O)c4ccc(CNC(=O)CCc5ccc6n5[B-](F)(F)[N+]5=C(c7ccc[nH]7)C=CC5=C6)cc4)cc3)nc2n(CCC)c1=O turned out to be 0.82

The compound N#CN=C(NCCCOc1cccc(CN2CCCCC2)c1)NCCNC(=O)CCOCCOCCOCCOCCNC(=O)CCc1ccc2n1[B-](F)(F)[N+]1=C(c3ccc[nH]3)C=CC1=C2 showed NanoBRET Fold Response equal to 0.98

Hello, the source for this data is paper PMC8151276, in case you need it.
